The origin of these recorded values is the kinase profiling compilation of Christmann-Franck et al. (2016).

This section presents molecules with their documented residual activity values.
target.or.test.system: NTRK1 (human) (UniProt P04629)
Sequence (P04629 whole entry, looked up): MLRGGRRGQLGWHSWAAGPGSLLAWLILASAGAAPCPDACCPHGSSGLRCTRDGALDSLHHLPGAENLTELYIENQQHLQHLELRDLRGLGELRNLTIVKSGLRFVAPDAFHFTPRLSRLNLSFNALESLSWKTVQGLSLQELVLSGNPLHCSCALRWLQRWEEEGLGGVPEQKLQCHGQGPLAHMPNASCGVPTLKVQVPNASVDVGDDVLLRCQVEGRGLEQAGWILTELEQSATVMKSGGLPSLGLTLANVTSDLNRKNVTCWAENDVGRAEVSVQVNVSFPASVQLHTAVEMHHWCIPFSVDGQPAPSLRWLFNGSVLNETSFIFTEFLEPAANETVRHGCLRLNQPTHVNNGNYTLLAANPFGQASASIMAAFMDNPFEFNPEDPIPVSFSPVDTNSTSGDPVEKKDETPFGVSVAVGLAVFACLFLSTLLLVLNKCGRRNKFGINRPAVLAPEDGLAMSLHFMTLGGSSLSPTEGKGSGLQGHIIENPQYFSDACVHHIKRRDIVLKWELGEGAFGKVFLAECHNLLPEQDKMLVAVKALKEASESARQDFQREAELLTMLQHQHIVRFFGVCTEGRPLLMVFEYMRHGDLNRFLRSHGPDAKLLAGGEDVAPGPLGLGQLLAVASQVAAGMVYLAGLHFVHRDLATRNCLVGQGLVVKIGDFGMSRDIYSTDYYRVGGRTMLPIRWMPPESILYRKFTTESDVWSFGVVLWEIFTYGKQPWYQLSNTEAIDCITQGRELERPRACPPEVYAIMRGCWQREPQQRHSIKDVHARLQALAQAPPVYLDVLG
test: radiometric filter-binding kinase assay, Kinase HotSpot
recorded.conditions: compound 0.5 µM; ATP 10 µM

>  <chemical.structure>
c1ccc(-c2cnc(Nc3ccc(OCCN4CCCC4)cc3)s2)cc1

>  <residual activity [%]>
54.1

$$$$
>  <chemical.structure>
FC(F)(F)c1ccc(/C=C/c2nc(COc3ccc(CCCCn4ccnn4)cc3)co2)cc1

>  <residual activity [%]>
103

$$$$
>  <chemical.structure>
N#CCCc1ccc2c(c1)-c1[nH]c3ccc([N+](=O)[O-])cc3c1CC(=O)N2

>  <residual activity [%]>
115

$$$$
>  <chemical.structure>
O=S(=O)(NCCNC/C=C/c1ccc(Br)cc1)c1cccc2cnccc12

>  <residual activity [%]>
84.9

$$$$
>  <chemical.structure>
O=C1NC(=O)c2c1c1c3ccccc3[nH]c1c1[nH]c3cc(Br)ccc3c21

>  <residual activity [%]>
82.2

$$$$
>  <chemical.structure>
O=c1c(-c2ccc(F)cc2)c(-c2ccncc2)[nH]n1-c1ccc(Cl)cc1

>  <residual activity [%]>
95.5

$$$$
>  <chemical.structure>
COc1cccc(-c2cc(=O)c3ccccc3o2)c1N

>  <residual activity [%]>
99.9

$$$$
>  <chemical.structure>
CCCCc1c(-c2ccc(O)cc2)[nH]c2nccnc12

>  <residual activity [%]>
99.6

$$$$
>  <chemical.structure>
O=C(O)c1ccc2c3c1cccc3c(=O)n1c3ccccc3nc21

>  <residual activity [%]>
105

$$$$
>  <chemical.structure>
O=C(c1ccccc1)c1ccc(N2CCOCC2)cc1O

>  <residual activity [%]>
99

$$$$
>  <chemical.structure>
N#C/C(=C1/Nc2ccccc2S1)c1ccnc(NCCc2cccnc2)n1

>  <residual activity [%]>
106

$$$$
